- Test system: LOX IMVI melanoma
- protocol: NCI tumour cell line growth inhibition, 48 h
propertyMeasured: TGI (µM)
Numbers only, in µM.

| molecule | propertyMeasured | result |
| --- | --- | --- |
| COC(=O)C(Cc1c[nH]c2ccccc12)N=C1Nc2ccncc2S(=O)(=O)N1c1ccccc1 (stereo not given) | TGI | 69.3 |

Now turn to the next molecule.
INPUT: State the recorded TGI for this entry: COc1cc(/C=C/C(=O)CC(=O)/C=C/c2cc(OC)c(OC)c(OC)c2)cc(OC)c1OC
OUTPUT: 9.14

---

Exercise: state measured TGI for each of the molecules provided.
- Test system: UO-31 renal
- protocol: NCI tumour cell line growth inhibition, 48 h

Check out these entries, answers already filled in.
| molecule | TGI |
| --- | --- |
| CC(C)c1ccc(C(=O)Nc2nc3ccc(O)cc3s2)cc1 | > 100 µM |
| CC(=O)O[C@H]1CC[C@H]2[C@@H]3CCC4C(C)=NNC(=O)C4[C@H]3CC[C@]12C (stereo partly specified) | > 100 µM |

Record TGI for all entries; do not skip any.
1. CN(C)C=Nc1cccc2nsnc12
2. CCOC(=O)C(N)C[S][Sn]([CH3])([CH3])[Cl] (stereo unspecified)
3. COc1cc(Nc2nccc(Nc3ccc4c(C)[nH]nc4c3)n2)cc(OC)c1OC
4. Nc1nc(Cl)c(N)c(NCC2(CO)CCC2)n1
5. COc1nc(C)nc2sc3c(c12)CCCC3
6. COCC(N=CN1CCCc2ccccc2[C@@H]1CCCCl)C(C)(C)C (stereo partly specified)
7. Cc1cc(C)nc(NS(=O)(=O)c2ccc(Nc3c4ccccc4nc4c(C(=O)NNCCO)cccc34)cc2)n1

OUTPUT:
1: > 100 µM; 2: > 100 µM; 3: 5.19 µM; 4: > 100 µM; 5: > 100 µM; 6: 33.2 µM; 7: > 100 µM

Record TGI for all entries; do not skip any.
1. COc1cc(C2SCC(=O)N2c2ccccc2Cl)cc(OC)c1OC (stereo unspecified)
2. CC(=O)c1c(C)[nH]c(-c2nc3ccc(N4CCN(C)CC4)cc3[nH]2)c1-c1ccc(OCC2CCOCC2)cc1

OUTPUT:
> 100 µM
6.81 µM

---

- Tested on: MOLT-4 leukemia
- protocol: NCI tumour cell line growth inhibition, 48 h
Exercise: state measured TGI for each of the molecules provided.

Check out these entries, answers already filled in.
| molecule | propertyMeasured | result |
| --- | --- | --- |
| CC(C)(C)[Si](C)(C)O[C@@H](C(=O)OC1C=CCCC1)[C@@H](NC(=O)c1ccccc1)c1ccccc1 (stereo not given in full) | TGI | 39.3 µM |
| O=C(c1ccccc1)c1ccc2nc3n(c2c1)C(c1c(F)cccc1F)SC3 (stereo not given) | TGI | 27.6 µM |
| CC/C(C)=C1\CCC(CN2CCOCC2)C1=O (stereo not given) | TGI | > 100 µM |

Record TGI for all entries; do not skip any.
1. O=C(O[C@H]1CN[C@H](C#Cc2cc3ncnc(Nc4ccc5c(ccn5Cc5cc(F)ccc5F)c4)c3s2)C1)N1CCOCC1
2. O=c1[nH]n(Cc2ccccc2Cl)c2ccc([N+](=O)[O-])cc12
3. CC(=O)O[C@@H]1CC[C@@]2(C)C(CC[C@H]3[C@@H]4CC[C@H]([C@H](C)CCc5nc6ccc(C)cc6[nH]5)[C@@]4(C)CC[C@@H]32)C1 (stereo not given in full)
4. CC(=O)CC(=O)Nc1ccc2ccccc2c1
5. O=c1c2cc(Cl)ccc2oc2ccc(OCCCCCN3CCCCC3)cc12

OUTPUT:
1. > 25 µM
2. > 100 µM
3. > 100 µM
4. > 100 µM
5. 10.7 µM

Record TGI for all entries; do not skip any.
1. NNC(=O)/C(=C/c1ccc(Cl)c(Cl)c1)NC(=O)c1ccccc1
2. COc1cc(/C=C(\C#N)C(=O)c2ccccc2)ccc1OCc1ccccc1
3. CCC1(CC)C(=O)OC(=O)C1(CC)CC
4. COc1cc(OCc2nc3ccccc3n3cccc23)cc(OC)c1OC

OUTPUT:
1. > 100 µM
2. > 100 µM
3. > 100 µM
4. 14.3 µM

Record TGI for all entries; do not skip any.
1. O=c1c2c(nc3n1CCS3)[nH]c1ccccc12
2. C=C1C(=O)OC2/C=C(\CO)C3OC3C3OC3(C)CC(OC(=O)/C(=C/C)CO)C12 (stereo not given)

OUTPUT:
> 100 µM
84.3 µM

Record TGI for all entries; do not skip any.
1. COc1cc(C(=O)/C(C)=C/c2c[nH]c3ccccc23)cc(OC)c1OC
2. Cc1ccc(-n2cnc3c(N)nc(N)nc32)cc1
3. COc1ccc(/C=N\NC(=O)CN2CCN(c3cc4c(cc3F)c(=O)c(C(=O)N/N=C/c3ccc(OC)c(OC)c3)cn4C3CC3)CC2)cc1OC
4. Cc1[nH]c2ccccc2c1C1Cc2ccccc2N1C(=O)/C=C\C(=O)O (stereo not given)
5. COc1ccc(NC(=O)C(=O)C(C(=O)c2ccccc2)C2OC(=O)c3ccccc32)c([N+](=O)[O-])c1 (stereo not given)
6. CC(C)CS(=O)(=O)/C(=C(\c1ccc(Br)cc1)S(=O)(=O)CC(C)C)c1ccc(Br)cc1

OUTPUT:
1: 37 µM; 2: > 100 µM; 3: > 100 µM; 4: > 100 µM; 5: > 100 µM; 6: > 100 µM

Data origin, for the record: PubChem BioAssay (NCI)
